Numbers sourced from patent US7179819B2.

assay: Pharmacokinetic evaluation in rat; assay type: in vivo; conditions: plasma, iv, 10 mg/kg, 10 mg/kg (i.v.), line of AUC 0–∞, read-out: MRT (mean residence time)
measurementName: MRT (min)
Just the number in min, nothing appended.

Exam item: Given Cc1cc(CC(=O)N2C[C@@H](F)C[C@H]2COc2ccc(C(=O)O)cc2)ccc1NC(=O)Nc1ccccc1Cl [Compound 79] , state its recorded MRT.
Marked response: 36

Exam item: Given Cc1ccccc1NC(=O)Nc1ccc(CC(=O)N2C[C@@H](F)C[C@H]2COc2ccc(C(=O)O)cc2)cc1Cl [Compound 90] , state its recorded MRT.
Marked response: 66

====

Answer each item with its documented melting point.

Exam item: Given Cc1cc(CC(=O)N2C[C@@H](F)C[C@H]2COc2ccc(C(=O)O)cc2)ccc1NC(=O)Nc1ccccc1C(F)(F)F , state its recorded melting point.
Marked response: 123 to 126 °C

Exam item: Given COc1cc(CC(=O)N[C@@H](C)COc2ccc(C(=O)O)cc2)ccc1NC(=O)Nc1ccccc1Br , state its recorded melting point.
Marked response: 202 to 205 °C

Exam item: Given COc1cc(CC(=O)N2CC(N)C[C@H]2COc2ccc(C(=O)O)cc2)ccc1NC(=O)Nc1ccccc1C (stereo in doubt) , state its recorded melting point.
Marked response: 170 to 171 °C

Exam item: Given COc1cc(CC(=O)N(C)CCOc2ccc(C(=O)O)cc2N(C)C)ccc1NC(=O)Nc1ccccc1C , state its recorded melting point.
Marked response: 125 to 130 °C

Exam item: Given COc1cc(CC(=O)N(Cc2ccccc2)[C@@H](C)COc2ccc(C(=O)O)cc2Cl)ccc1NC(=O)Nc1ccccc1F , state its recorded melting point.
Marked response: 125 to 130 °C

Exam item: Given COc1cc(CC(=O)N(C)CCOc2ccc(C(=O)O)cc2N)ccc1NC(=O)Nc1ccccc1C , state its recorded melting point.
Marked response: 125 to 130 °C

Exam item: Given COc1cc(CC(=O)N2C[C@@H](Oc3ccc4ncccc4c3)C[C@H]2COc2ccc(C(=O)O)cc2)ccc1NC(=O)Nc1ccccc1Br , state its recorded melting point.
Marked response: 149 to 153 °C

Exam item: Given COc1cc(CC(=O)N(C)CCOc2ccc(C(=O)O)cc2N(C)C(C)C)ccc1NC(=O)Nc1ccccc1C , state its recorded melting point.
Marked response: 130 to 135 °C

Exam item: Given COc1cc(CC(=O)N2CCC[C@H]2COc2ccc(C(=O)O)cc2)ccc1NC(=O)Nc1ccccc1Br , state its recorded melting point.
Marked response: 120 to 125 °C

Exam item: Given COc1cc(CC(=O)N(C)CCN(C)c2ccc(C(=O)O)cc2)ccc1NC(=O)Nc1ccccc1C , state its recorded melting point.
Marked response: 125 to 130 °C

Exam item: Given COc1cc(CC(=O)N(C)[C@@H](C)COc2ccc(C(=O)O)cc2Cl)ccc1NC(=O)Nc1ccccc1F , state its recorded melting point.
Marked response: 142 to 147 °C

Exam item: Given Cc1ccccc1NC(=O)Nc1ccc(CC(=O)N2CCC[C@H]2COC2CCC(C(=O)O)CC2)cc1 (stereo partly shown) , state its recorded melting point.
Marked response: 107 to 111 °C

Exam item: Given COc1cc(CC(=O)N2C[C@H](OC)C[C@H]2COc2ccc(C(=O)O)cc2)ccc1NC(=O)Nc1ccccc1F , state its recorded melting point.
Marked response: 111 to 116 °C

Exam item: Given COc1cc(CC(=O)N2C[C@H](N(C)C)C[C@H]2COc2ccc(C(=O)O)cc2)ccc1NC(=O)Nc1ccccc1Cl , state its recorded melting point.
Marked response: 159 to 161 °C

Exam item: Given O=C(Nc1ccccc1)Nc1ccc(CC(=O)N2C[C@@H](F)C[C@H]2COc2ccc(C(=O)O)cc2)cc1 , state its recorded melting point.
Marked response: 169 to 171 °C

Exam item: Given COc1cc(CC(=O)N2CC[C@H](Oc3ccc(C(=O)O)cc3)C2)ccc1NC(=O)Nc1ccccc1Cl , state its recorded melting point.
Marked response: 190 to 193 °C

Exam item: Given COc1cc(CC(=O)N(C)CCNc2ccc(C(=O)O)c(NC(C)=O)c2)ccc1NC(=O)Nc1ccccc1Br , state its recorded melting point.
Marked response: 155 to 160 °C

Exam item: Given COc1cc(CC(=O)N2CCC[C@H]2COc2ccc(C(=O)O)cc2F)ccc1NC(=O)Nc1ccccc1C (stereo in doubt) , state its recorded melting point.
Marked response: 123 to 126 °C

Exam item: Given COc1cc(CC(=O)N2CCN(c3ccc(C(=O)O)cc3)CC2)ccc1NC(=O)Nc1ccccc1C , state its recorded melting point.
Marked response: 240 to 245 °C

Exam item: Given COc1cc(CC(=O)N2C[C@@H](F)C[C@H]2COc2ccc(C(=O)O)cc2)ccc1NC(=O)Nc1c(Cl)cccc1Cl , state its recorded melting point.
Marked response: 162 to 168 °C (dec.)

Exam item: Given COc1cc(CC(=O)N2C[C@H](OC)C[C@H]2COc2ccc(C(=O)O)cc2)ccc1NC(=O)Nc1ccccc1Br , state its recorded melting point.
Marked response: 125 to 130 °C

Exam item: Given COc1cc(CC(=O)N2C[C@@H](NS(=O)(=O)c3cccc4c(N(C)C)cccc34)C[C@H]2COc2ccc(C(=O)O)cc2)ccc1NC(=O)Nc1ccccc1Br , state its recorded melting point.
Marked response: 138 to 141 °C

Exam item: Given COc1cc(CC(=O)N2C[C@@H](O)C[C@H]2COc2ccc(C(=O)O)cc2)ccc1NC(=O)Nc1ccccc1Br , state its recorded melting point.
Marked response: 143 to 151 °C (dec.)

Exam item: Given COc1cc(CC(=O)N(C)CCOc2ccc(C(=O)O)cc2N2CCCCC2)ccc1NC(=O)Nc1ccccc1C , state its recorded melting point.
Marked response: 120 to 125 °C

Exam item: Given COc1cc(CC(=O)N2C[C@@H](N(C)C)C[C@H]2COc2ccc(C(=O)O)cc2)ccc1NC(=O)Nc1ccccc1C , state its recorded melting point.
Marked response: 147 to 150 °C

Exam item: Given COc1cc(CC(=O)N2CCC[C@H]2COc2ncc(C(=O)O)cc2Cl)ccc1NC(=O)Nc1ccccc1C (stereo in doubt) , state its recorded melting point.
Marked response: 122 to 125 °C

Exam item: Given Cc1cc(CC(=O)N2C[C@@H](F)C[C@H]2COc2ccc(C(=O)O)cc2)ccc1NC(=O)Nc1c(Cl)cccc1Cl , state its recorded melting point.
Marked response: 174 to 180 °C (dec.)

Exam item: Given Cc1ccccc1NC(=O)Nc1ccc(CC(=O)N(C)CCOc2ccc(C(=O)O)cc2N(C)C)cc1 , state its recorded melting point.
Marked response: 110 to 115 °C
